# Test system: HS 578T breast
# assay-explanation: NCI-60 one-dose screen, 48 h
# condition-context: 10 µM
This is part of a sample that, as a whole, favours compounds with a hit. Of some 83,000 tested, about 20% had one in any assay. The source made the active and inactive calls. How the source made its calls: active means growth percent below 10; inactive means the rest.
Outcomes: active, inactive

{"columns": ["compound", "target-system", "cat"],
 "data": [
  ["CC(=O)O[C@H]1[C@H](CC#CC#CC[C@@H]2C[C@]3(C)[C@H]4CC=C5[C@H]6[C@@H](C)[C@H](C)CC[C@]6(C(=O)NCCCCCCCCN)CC[C@@]5(C)[C@]4(C)CC[C@H]3C(C)(C)[C@H]2OC(C)=O)C[C@]2(C)[C@H]3CC=C4[C@H]5[C@@H](C)[C@H](C)CC[C@]5(C(=O)NCCCCCCCCN)CC[C@@]4(C)[C@]3(C)CC[C@H]2C1(C)C", "HS 578T breast", "inactive"],
  ["CCCCCCCCCCCCCCCc1cc(O)ccc1[N+](=O)[O-]", "HS 578T breast", "inactive"],
  ["N#Cc1nc(-c2ccc(Cl)cc2)cc(-c2ccc(Nc3nc(N4CCCCC4)nc(N4CCCCC4)n3)cc2)c1N", "HS 578T breast", "inactive"],
  ["CCc1oc2ccccc2c1C(=O)c1cc(I)c(O)c(I)c1", "HS 578T breast", "inactive"],
  ["COc1c(-c2cc(-c3ccc(C)o3)[nH]c(=O)n2)c(O)cc2occc12", "HS 578T breast", "inactive"],
  ["CC(CN1CCN(C)CC1)CN1c2ccccc2Sc2ccc(C(F)(F)F)cc21 (configuration not stated)", "HS 578T breast", "inactive"],
  ["COc1ccc2[nH]c(O)c(/C=c3/ccc4c(c3)N=C(c3ccc(F)cc3)N=4)c2c1", "HS 578T breast", "inactive"],
  ["Cc1n(Cc2ccc3ccccc3n2)cc[n+]1Cc1ccc2ccccc2n1", "HS 578T breast", "inactive"],
  ["COc1ccc(C(=O)C(C#N)c2cc(OC)c(OC)c(OC)c2)cc1 (configuration not stated)", "HS 578T breast", "inactive"],
  ["O=C(Oc1c(Cl)c(Cl)c(Cl)c(Cl)c1Cl)C1CCCN1C(=O)OCc1ccccc1 (configuration not stated)", "HS 578T breast", "inactive"],
  ["O=C1C(Cl)=C(N/N=c2/[nH][nH]/c(=N/NC3=C(Cl)C(=O)c4ccccc4C3=O)c3ccccc23)C(=O)c2ccccc21", "HS 578T breast", "inactive"],
  ["COc1ccc(NC(=O)/C=C/c2ccc(NC(=O)N3CCCC3)cc2)cn1", "HS 578T breast", "inactive"],
  ["O=c1[nH]cnc2nc[nH]c12", "HS 578T breast", "inactive"],
  ["CC(C)(C)c1ccc(Cn2c(-c3nonc3N)nc3ccccc32)cc1", "HS 578T breast", "inactive"],
  ["COc1ccc([C@@H]2[C@@H](Oc3ccccc3)C(=O)N2c2cc(OC)c(OC)c(OC)c2)cc1F", "HS 578T breast", "inactive"],
  ["NC(=O)c1noc(C(=O)c2ccccc2)c1N", "HS 578T breast", "inactive"],
  ["Cc1cc(NC(=O)C2c3ccccc3C(=O)N(CC(C)C)C2c2cccs2)no1 (configuration not stated)", "HS 578T breast", "inactive"],
  ["CCOC(=O)C1=C(C)NC(SCc2nnc(-c3ccc(Cl)cc3)o2)=NC1c1ccc(Cl)cc1 (configuration not stated)", "HS 578T breast", "inactive"],
  ["CCCN(CCC)CC(O)COc1ccccc1C(=O)Nc1ccccc1 (configuration not stated)", "HS 578T breast", "inactive"],
  ["Fc1[nH]nc2ccc([C@@H]3Nc4ccc5[nH]ncc5c4[C@H]4C5CCC(C5)[C@@H]34)cc12 (some centres not stated)", "HS 578T breast", "inactive"],
  ["COc1cc(C2CC(c3cccc(Nc4ccnc5cc(Cl)ccc45)c3)=NN2c2ccc(Cl)cc2)cc(OC)c1OC (configuration not stated)", "HS 578T breast", "inactive"],
  ["Cc1n(Cc2ccc3ccccc3n2)cc[n+]1Cc1ccc2ccccc2c1", "HS 578T breast", "inactive"],
  ["Oc1c(-c2cc(C(F)(F)F)[nH]n2)cc(Cl)c(OCc2ccc(Cl)cc2)c1-c1ccc(Cl)c(C(F)(F)F)c1", "HS 578T breast", "active"],
  ["COc1cc(NC(C)CCCN)c2ncccc2c1Oc1ccc(Cl)cc1 (configuration not stated)", "HS 578T breast", "inactive"],
  ["CCCc1n(Cc2ccc3ccccc3n2)cc[n+]1Cc1ccc2ccccc2n1", "HS 578T breast", "inactive"],
  ["CCCOC(=O)C1c2cc3c(cc2CC(C)C1C(=O)OCCC)OCO3 (configuration not stated)", "HS 578T breast", "inactive"],
  ["CC1C2CCC(C2)C1COCCOCCO (configuration not stated)", "HS 578T breast", "inactive"]
]}

====

# Test system: HCT-116 colon
# assay-explanation: NCI-60 one-dose screen, 48 h
# condition-context: 10 µM unless noted
The panel holds about 83,000 compounds, 20% with a hit somewhere; the sample as a whole holds those more often. The source made the active and inactive calls. How the source made its calls: active means growth percent below 10; inactive means the rest.
Outcomes: active, inactive

{"columns": ["compound", "target-system", "cat"],
 "data": [
  ["Cc1n(Cc2ccc3ccccc3n2)cc[n+]1Cc1ccc2ccccc2n1", "HCT-116 colon", "inactive"],
  ["Nc1nc(N)c2cc(CNc3ccc(Cl)c(Cl)c3)ccc2n1", "HCT-116 colon", "active"],
  ["c1ccc(C2=Nc3ccccc3SC2)cc1", "HCT-116 colon", "inactive"],
  ["Nc1ncnc2c1N=C(c1ccc(F)cc1)CC(c1sc(Cl)nc1Cl)N2 (centres undefined)", "HCT-116 colon", "inactive"],
  ["CCOC(=O)C1=C(C)NC(SCc2nnc(-c3ccc(Cl)cc3)o2)=NC1c1ccc(Br)cc1 (centres undefined)", "HCT-116 colon", "inactive"],
  ["NC(=S)N/N=C(/c1cccs1)C1CC1", "HCT-116 colon", "active"],
  ["O=[N+]([O-])c1cc(F)c2cccnc2c1O", "HCT-116 colon", "inactive"],
  ["Cc1cccc(C(=O)O)n1", "HCT-116 colon", "inactive"],
  ["COc1cc2cc(C(=O)Nc3ccccc3)c(N)nc2cc1OC", "HCT-116 colon", "active"],
  ["CC(C)COC(=O)NC(C)(C)C", "HCT-116 colon", "inactive"],
  ["CNC(=O)c1cc(Oc2ccc(NC(=O)c3nc(S(C)(=O)=O)n(C)c3-c3ccc(F)cc3)cc2)ccn1", "HCT-116 colon", "inactive"],
  ["C=C(CN1CC=CCC1)[C@@H]1CC[C@]2(C(=O)OC)CC[C@]3(C)[C@H](CC[C@@H]4[C@@]5(C)CC[C@H](OC(C)=O)C(C)(C)[C@@H]5CC[C@]43C)[C@@H]12", "HCT-116 colon", "inactive"],
  ["COc1c(B(O)O)cccc1-c1nc2c(F)cc3n[nH]c(C)c3c2c2c1CCCC2", "HCT-116 colon", "inactive"],
  ["COc1ccc(C2=CC(c3ccc(OC)cc3Br)N3C=CSC3=N2)cc1 (centres undefined)", "HCT-116 colon", "active"]
]}

====

# Tested on: UACC-257 melanoma
# assay-explanation: NCI-60 one-dose screen, 48 h (100 = growth as untreated, 0 = no growth, -100 = all killed)
# condition-context: 10 µM unless noted
About 83,000 compounds went through this panel and 20% of them were active in at least one assay; those are over-represented in the sample as a whole.

{"columns": ["compound", "endpoint-unit", "growth"],
 "data": [
  ["O=C(Nc1ccccc1Cl)Oc1ccc2ccccc2c1", "%", 93.5],
  ["Nc1nc(N)c2cc(CNc3ccc(Cl)c(Cl)c3)ccc2n1", "%", 32.4],
  ["Nc1cc2nc3ccccc3oc-2cc1=O", "%", 31.7],
  ["CC(=O)N[C@@H](CCC(N)=O)C(=O)O", "%", 97.4],
  ["Oc1c(C(c2ccc(F)cc2)N2CCCCC2)ccc2cncnc12 (stereo not drawn)", "%", 0.316],
  ["COc1ccc(C(=O)c2c(N)nc3n2CCCC3)cc1OC", "%", 100],
  ["COc1ccccc1/C=N\\NC(=S)Nc1ccc(F)cc1", "%", 77.2],
  ["COc1ccc(C2CC(c3ccc(Nc4ccnc5cc(Cl)ccc45)cc3)=NN2c2ccccc2)cc1 (stereo not drawn)", "%", 97.4],
  ["Nc1c(C(=O)Nc2cccc(Cl)c2)sc2ncc(Br)cc12", "%", 96],
  ["COc1ccc(C2C=C(c3ccc(Cl)cc3)N=C3SC=CN32)cc1 (stereo not drawn)", "%", 108],
  ["COC(=O)C1(C)COP(=O)(NC23CC4CC(CC(C4)C2)C3)OC1 (stereo not drawn)", "%", 101],
  ["C1=C\\CCCCN2CC[C@H]3[C@H](CCCC/C=C\\CCCN4C[C@@H](CCCCC/1)C[C@@H]3C4)C2", "%", 84.7],
  ["O=C1C2=C(C(=O)c3c(O)ccc(O)c31)N(c1ccc(N3CCOCC3)nc1)Cc1ccccc1O2", "%", -92],
  ["CC(=O)Nc1nonc1-c1nc2ccccc2n1Cc1ccc(C(C)(C)C)cc1", "%", 92],
  ["COc1c(-c2cc(-c3ccc(C)o3)[nH]c(=O)n2)c(O)cc2occc12", "%", 78.7],
  ["OC(c1cc(-c2ccc(C(F)(F)F)cc2)nc(-c2ccc(C(F)(F)F)cc2)c1)C1CCCCN1 (stereo not drawn)", "%", -76],
  ["O=C(Nc1ccc2[nH]c3ccccc3c2c1)c1ccccc1Cl", "%", 83.1],
  ["Clc1ccccc1Nc1nnc(-c2ccncc2)s1", "%", 108],
  ["O=C(Cn1nncc1CN1C(=O)CSC1=O)Nc1ccc(F)cc1", "%", 107],
  ["CCCCOc1ncnc2nc[nH]c12", "%", 101],
  ["CC(C)(C)c1ccc(Cn2c(-c3nonc3N)nc3ccccc32)cc1", "%", 76.8],
  ["COc1ccc(-c2nsc3c2NC(=O)CC3c2ccc3c(c2)OCO3)cc1 (stereo not drawn)", "%", 60.2],
  ["COC1=CC(c2ccc[nH]2)=N/C1=C\\c1[nH]c(C)c(C(=O)CCCCCCCCC(=O)O[C@H]2CC[C@H]3C4CCc5cc(O)ccc5C4CC[C@]23C)c1C (stereo partly drawn)", "%", 49.2],
  ["CC(CN1CCN(C)CC1)CN1c2ccccc2Sc2ccc(C(F)(F)F)cc21 (stereo not drawn)", "%", 30],
  ["COc1ccc(NC(=O)c2ccc(C(F)(F)F)nc2Nc2ccc(Cl)cc2C)cc1Cl", "%", 22],
  ["CC(C)NC(=O)OCC#CCOC(=O)NC(C)C", "%", 105],
  ["COc1cc(-c2n/c(=C\\c3c(O)[nH]c4cc(Cl)ccc34)cc3c2=Nc2ccccc2-3)cc(OC)c1OC", "%", 40.9],
  ["Nc1nc(N)c2c(n1)NC(c1sc(Cl)nc1Cl)CC(c1ccc3c(c1)OCO3)=N2 (stereo not drawn)", "%", 39.2],
  ["CC(OC(=O)Nc1cccc(Cl)c1)C(=O)O (stereo not drawn)", "%", 91.5],
  ["COCCOCCOCc1n(Cc2ccc3ccccc3n2)c2ccccc2[n+]1Cc1ccc2ccccc2c1", "%", -8.67],
  ["Clc1ccc2c(c1)-c1ccccc1C1=NCCN12", "%", 14.2],
  ["O=C1/C(=C\\c2cccn2C(=O)c2ccccc2)c2ccccc2N1c1c(Cl)cccc1Cl", "%", 90.7],
  ["Oc1ccc(CCCCCCc2ccc(O)cc2)cc1", "%", 91.4],
  ["COc1ccc(/C=C2\\N=C(c3cccnc3)N(c3ccccc3)NC2=O)cc1", "%", 102],
  ["Cc1ccc(NC(=O)c2[nH]c(SCCN(C)C)nc2-c2ccc(F)cc2)cc1Nc1ccc2ncn(C)c(=O)c2c1", "%", 22],
  ["COc1ccc(-c2nnc(SCC(=O)Nc3ccc(C(=O)/C=C/c4ccc(Cl)cc4)cc3)n2-c2ccccc2)cc1", "%", 115],
  ["CC(C)[C@H](CN)NC[C@H](C)NS(=O)(=O)c1ccc(C(C)(C)C)cc1", "%", 96.4],
  ["CCc1ccc2c(c1)N(CCO)C1=C(C(=O)OC1)C2c1cccc(Br)c1 (stereo not drawn)", "%", 63.4]
]}
